Entry source: ChEMBL document CHEMBL1139231

List of Ki tested on Sodium-dependent serotonin transporter (Homo sapiens).
Sequence (P31645 whole entry): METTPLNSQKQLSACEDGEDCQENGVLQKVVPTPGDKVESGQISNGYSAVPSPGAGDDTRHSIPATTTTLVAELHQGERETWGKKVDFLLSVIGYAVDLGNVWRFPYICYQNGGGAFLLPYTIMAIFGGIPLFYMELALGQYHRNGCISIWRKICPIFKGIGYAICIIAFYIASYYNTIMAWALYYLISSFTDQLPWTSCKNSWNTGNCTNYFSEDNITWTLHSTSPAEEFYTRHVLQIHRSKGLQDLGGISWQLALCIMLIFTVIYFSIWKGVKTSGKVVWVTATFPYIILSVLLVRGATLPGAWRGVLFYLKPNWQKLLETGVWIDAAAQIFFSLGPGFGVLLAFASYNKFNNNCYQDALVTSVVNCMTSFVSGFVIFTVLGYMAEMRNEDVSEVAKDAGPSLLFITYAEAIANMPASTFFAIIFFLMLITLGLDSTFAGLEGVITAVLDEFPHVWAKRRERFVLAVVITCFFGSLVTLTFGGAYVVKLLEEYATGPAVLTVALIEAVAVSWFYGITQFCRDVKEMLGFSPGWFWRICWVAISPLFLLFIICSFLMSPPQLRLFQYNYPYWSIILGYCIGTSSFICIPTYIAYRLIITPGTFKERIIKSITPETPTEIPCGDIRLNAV
ASSAY ENDPOINT: Ki (µM)

MOLECULE: Clc1ccc(C(CCCc2ccccc2)C2CCCCN2)cc1 (stereo in doubt; form 1)
INEQUALITY OPERATOR: =
ASSAY RESULT: 0.7
//
MOLECULE: COc1cccc(C(CC(C)C)C2CCCCN2)c1 (stereo in doubt; form 2)
INEQUALITY OPERATOR: =
ASSAY RESULT: 3.8
//
MOLECULE: CCC(CC)C(c1ccc(Cl)cc1)C1CCCCN1 (stereo in doubt; form 2)
INEQUALITY OPERATOR: =
ASSAY RESULT: 4.8
//
MOLECULE: CC(c1ccc(Cl)cc1)C1CCCCN1 (stereo in doubt; form 2)
INEQUALITY OPERATOR: >
ASSAY RESULT: 9.1
//
MOLECULE: COc1ccc(C(CC(C)C)C2CCCCN2)cc1 (stereo in doubt; form 2)
INEQUALITY OPERATOR: =
ASSAY RESULT: 0.95

###

biological target: Sodium-dependent noradrenaline transporter (Homo sapiens, UniProt P23975); test: Inhibition of [3H]NE uptake into human NET expressing HEK293 cells
Sequence (P23975 whole entry): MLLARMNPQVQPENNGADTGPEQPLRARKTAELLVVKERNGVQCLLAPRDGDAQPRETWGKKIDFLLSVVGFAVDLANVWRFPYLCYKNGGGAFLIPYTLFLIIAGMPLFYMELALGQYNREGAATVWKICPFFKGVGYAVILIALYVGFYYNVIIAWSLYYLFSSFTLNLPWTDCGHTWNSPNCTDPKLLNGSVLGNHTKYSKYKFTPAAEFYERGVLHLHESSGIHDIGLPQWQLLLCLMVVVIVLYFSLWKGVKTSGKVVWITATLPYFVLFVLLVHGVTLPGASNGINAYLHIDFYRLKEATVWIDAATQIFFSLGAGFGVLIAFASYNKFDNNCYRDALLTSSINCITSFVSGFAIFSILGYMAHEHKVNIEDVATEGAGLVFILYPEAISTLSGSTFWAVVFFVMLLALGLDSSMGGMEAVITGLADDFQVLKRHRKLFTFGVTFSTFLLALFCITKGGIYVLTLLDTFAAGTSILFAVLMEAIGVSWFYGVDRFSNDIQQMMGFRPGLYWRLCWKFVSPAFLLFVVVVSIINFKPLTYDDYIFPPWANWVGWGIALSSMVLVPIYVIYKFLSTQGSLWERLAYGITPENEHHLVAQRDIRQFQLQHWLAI
Threshold check on IC50: strictly below 300 nM is T; on or above 300 nM is F.

COMPOUND: Clc1ccc(C(CCCc2ccccc2)C2CCCCN2)cc1 (stereo in doubt; form 1)
GROUP LABEL: F

COMPOUND: CCCC(c1ccc(Cl)cc1)C1CCCCN1 (stereo not given)
GROUP LABEL: T

COMPOUND: CCCC(c1ccc(Cl)c(Cl)c1)C1CCCCN1 (stereo in doubt; form 2)
GROUP LABEL: T

COMPOUND: COc1ccc(C(CC(C)C)C2CCCCN2)cc1 (stereo in doubt; form 2)
GROUP LABEL: F

COMPOUND: CC(c1ccc(Cl)cc1)C1CCCCN1 (stereo in doubt; form 2)
GROUP LABEL: F

COMPOUND: CCCCC(c1ccc(Cl)c(Cl)c1)C1CCCCN1 (stereo in doubt; form 2)
GROUP LABEL: T

COMPOUND: CC(=O)C(c1ccccc1)C1CCCCN1 (stereo not given)
GROUP LABEL: T

COMPOUND: CC(C)CC(c1cccc(Cl)c1)C1CCCCN1 (stereo in doubt; form 1)
GROUP LABEL: T

COMPOUND: COc1cccc(C(CC(C)C)C2CCCCN2)c1 (stereo in doubt; form 1)
GROUP LABEL: F

COMPOUND: CC(C)CC(c1ccc(Cl)c(Cl)c1)C1CCCCN1 (stereo in doubt; form 1)
GROUP LABEL: T

COMPOUND: Clc1ccc(C(Cc2ccccc2)C2CCCCN2)cc1 (stereo not given)
GROUP LABEL: F

COMPOUND: CC(C)CC(c1cccc(Cl)c1)C1CCCCN1 (stereo in doubt; form 2)
GROUP LABEL: T

COMPOUND: CCC(c1ccc(Cl)cc1)C1CCCCN1 (stereo not given)
GROUP LABEL: F

COMPOUND: CCC(CC)C(c1ccc(Cl)cc1)C1CCCCN1 (stereo in doubt; form 1)
GROUP LABEL: F

COMPOUND: CCCCCC(c1ccc(Cl)cc1)C1CCCCN1 (stereo in doubt; form 1)
GROUP LABEL: T

COMPOUND: CCCCC(c1ccc(Cl)c(Cl)c1)C1CCCCN1 (stereo in doubt; form 1)
GROUP LABEL: T

COMPOUND: CC(c1ccc(Cl)cc1)C1CCCCN1 (stereo in doubt; form 1)
GROUP LABEL: T

COMPOUND: CCCCCC(c1ccc(Cl)cc1)C1CCCCN1 (stereo in doubt; form 2)
GROUP LABEL: F

COMPOUND: CC(C)CCC(c1ccc(Cl)cc1)C1CCCCN1 (stereo in doubt; form 1)
GROUP LABEL: T

COMPOUND: COC(=O)C(c1ccccc1)C1CCCCN1 (stereo not given) [METHYLPHENIDATE]
GROUP LABEL: T
